# measured-on: human A2B receptors (hA2B) (Homo sapiens)
# Construct: expressed in transfected cells; host or cells: HEK-293 (HEK-A2B, G418-selected)
# Sequence (P29275 whole entry): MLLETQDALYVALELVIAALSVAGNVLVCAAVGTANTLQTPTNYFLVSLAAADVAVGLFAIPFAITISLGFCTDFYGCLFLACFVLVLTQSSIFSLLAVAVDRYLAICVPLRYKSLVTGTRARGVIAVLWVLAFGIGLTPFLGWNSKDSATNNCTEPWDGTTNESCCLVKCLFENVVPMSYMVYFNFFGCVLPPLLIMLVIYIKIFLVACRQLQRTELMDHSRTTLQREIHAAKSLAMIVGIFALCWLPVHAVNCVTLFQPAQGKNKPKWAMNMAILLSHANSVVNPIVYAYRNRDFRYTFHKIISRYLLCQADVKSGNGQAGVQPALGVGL
# method-summary: Radioligand binding ([125I]ABOPX / [3H]ZM241385) at human A2B receptors expressed in HEK-293 cells
# settings: Table 4; Ki ratio
Item-by-item account of rA1/hA2B
metric: rA1/hA2B

molecule-smiles	metric	reading
CCCn1c(=O)[nH]c(=O)c2[nH]c(-c3ccc(OCC(=O)NN4C(=O)C(C)=C(C)C4=O)cc3)nc21	rA1/hA2B	2.0
CCCn1c(=O)c2[nH]c(-c3ccc(OCC(=O)NNC(=O)CNC(=O)CNC(=O)OCc4ccccc4)cc3)nc2n(CCC)c1=O	rA1/hA2B	3.3
CCCn1c(=O)c2[nH]c(-c3ccc(OCC(=O)NN4C(=O)C[C@H](NC(=O)C(F)(F)F)C4=O)cc3)nc2n(CCC)c1=O	rA1/hA2B	2.5
